tested on: SF-539 CNS; test: NCI-60 one-dose screen, 48 h (100 = growth as untreated, 0 = no growth, -100 = all killed); details: 10 µM unless noted
The panel holds about 83,000 compounds, 20% with a hit somewhere; the sample as a whole holds those more often.
Please go through the items and note down their growth.
Answers are plain numbers, in %.

Before answering, review these 6 worked examples.
1) Cc1nn(-c2ccc([N+](=O)[O-])cc2)c2ncnc(NCCc3ccccc3)c12 ... 99.5
2) OCc1ncc(-c2ccccc2)s1 ... 98.1
3) CC(=O)Nc1ccc(S(=O)(=O)n2ccc(-c3ccc4c(c3)CCC(C)(C)O4)n2)cc1 ... 73.8
4) CC(=O)OC[C@]12CC[C@H]3[C@@H](C[C@H]4O[C@]45CC=CC(=O)[C@]35C)[C@]1(O)CC[C@@]2(O)[C@@](C)(O)C1CC(C)=C(C)C(=O)O1 (stereo not given in full) ... -42.7
5) N#Cc1c(-c2ccccc2)nc(SCC(=O)N2CCN(c3ccccc3)CC2)[nH]c1=O ... 99.2
6) CCN(CC)c1ccc2[nH]c3c(C(N)=O)cc(=O)c(=O)c=3oc2c1 ... -28.3

Need growth for each of these compounds.
1. NC(=O)CCCN1C/C(=C\c2ccccc2)C(=O)c2ccccc21
2. Cc1ccc(S(=O)(=O)NCCNc2cc(-c3cn(C(C)(C)C)nc3-c3cccc(O)c3)ccn2)cc1
3. NC1=NC(SCc2ccccc2CCl)c2ncn(Cc3ccccc3CCl)c2N1 (stereo not given)
4. N#C/C(=C1C=C/C(=N/O)C(Cl)=C/1)c1ccc(Cl)cc1
5. C=C1C(=O)O[C@H]2[C@H]1CC/C(Cn1cc(-c3cccc(Cl)c3)nn1)=C\CC[C@@]1(C)O[C@@H]21
6. C=C1CCC2C3(C)COC(c4c(OC)cccc4OC)OC3CCC2(C)C1C/C=C1/C(=O)OCC1O (stereo not given)
7. COc1ccc(-c2ccc(-c3ccc(-c4ccc(C(=N)N)cc4)s3)s2)cc1OC
8. O=C(Oc1ccccc1[N+](=O)[O-])C1CCCN1C(=O)OCc1ccccc1 (stereo not given)

Result ::
105
64.5
69.4
18.8
-76.7
66.7
88.9
97.2

// each listed compound needs a value for growth
1. COc1ccc2c(c1)cn1c3ccc(OC)cc3[nH]c(=O)c21
2. CCCCCCCCN(CCCCCCCC)CCCCCCNc1cc(OC)cc2cccnc12
3. COC(=O)c1cc(=O)nc(N/N=C/c2ccco2)s1
4. Clc1ccccc1-c1nc2ccccc2[nH]1
5. CC(C)(C)OC(=O)NCCc1ccc(N=C=S)cc1
6. CCN1CCN(CC(=O)N2c3cccc4cccc(c34)N(C(=O)CN3CCN(CC)CC3)C2c2cn(-c3ccccc3)nc2-c2cccc([N+](=O)[O-])c2)CC1

Result ::
[-84.9, 111, 108, 94.6, 69.2, -89.2]

All figures here come from PubChem BioAssay (NCI).
